Data origin: patent US20210238260

Catalogue of % of WT kcat/KM values
target.under.test: Factor X, P00742
Sequence (P00742 whole entry, looked up): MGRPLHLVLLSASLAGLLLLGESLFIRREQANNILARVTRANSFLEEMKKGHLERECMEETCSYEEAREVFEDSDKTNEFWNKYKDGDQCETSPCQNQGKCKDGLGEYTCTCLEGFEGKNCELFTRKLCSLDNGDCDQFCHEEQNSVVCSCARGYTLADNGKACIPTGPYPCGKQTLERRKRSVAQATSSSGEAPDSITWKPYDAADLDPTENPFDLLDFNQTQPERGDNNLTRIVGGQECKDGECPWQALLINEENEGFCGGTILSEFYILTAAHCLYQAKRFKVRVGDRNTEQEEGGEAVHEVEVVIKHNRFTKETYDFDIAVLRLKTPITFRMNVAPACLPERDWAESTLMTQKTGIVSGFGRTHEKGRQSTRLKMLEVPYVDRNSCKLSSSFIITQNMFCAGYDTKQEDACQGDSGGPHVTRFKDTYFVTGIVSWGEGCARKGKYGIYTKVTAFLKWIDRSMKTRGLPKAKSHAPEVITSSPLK

protein	% of WT kcat/KM (%)
FIXa-A103N/N105S/R318Y/R338E/R403E/E410N (mature FIX numbering) (protein) chain 1: YNSGKLEEFVQGNLERECMEEKCSFEEAREVFENTERTTEFWKQYVDGDQCESNPCLNGGSCKDDINSYECWCPFGFEGKNCELDVTCNIKNGRCEQFCKNSNDSKVVCSCTEGYRLAENQKSCEPAVPFPCGRVSVSQTSKLTR chain 2: VVGGEDAKPGQFPWQVVLNGKVDAFCGGSIVNEKWIVTAAHCVETGVKITVVAGEHNIEETEHTEQKRNVIRIIPHHNYNAAINKYNHDIALLELDEPLVLNSYVTPICIADKEYTNIFLKFGSGYVSGWGRVFHKGYSALVLQYLRVPLVDRATCLESTKFTIYNNMFCAGFHEGGRDSCQGDSGGPHVTEVEGTSFLTGIISWGEECAMKGKYGIYTKVSEYVNWIKNKTKLT	327
FIXa-N260S/R318Y/R338E/R403E/E410N (protein) chain 1: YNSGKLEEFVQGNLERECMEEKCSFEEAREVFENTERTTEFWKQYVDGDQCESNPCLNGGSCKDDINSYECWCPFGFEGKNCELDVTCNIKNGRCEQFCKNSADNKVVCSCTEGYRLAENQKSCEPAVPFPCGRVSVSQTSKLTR chain 2: VVGGEDAKPGQFPWQVVLNGKVDAFCGGSIVNEKWIVTAAHCVETGVKITVVAGEHNIEETEHTEQKRNVIRIIPHHNYSAAINKYNHDIALLELDEPLVLNSYVTPICIADKEYTNIFLKFGSGYVSGWGRVFHKGYSALVLQYLRVPLVDRATCLESTKFTIYNNMFCAGFHEGGRDSCQGDSGGPHVTEVEGTSFLTGIISWGEECAMKGKYGIYTKVSEYVNWIKNKTKLT	117
FIXa-Y155F/N260S/R338E/T343R/R403E (protein) chain 1: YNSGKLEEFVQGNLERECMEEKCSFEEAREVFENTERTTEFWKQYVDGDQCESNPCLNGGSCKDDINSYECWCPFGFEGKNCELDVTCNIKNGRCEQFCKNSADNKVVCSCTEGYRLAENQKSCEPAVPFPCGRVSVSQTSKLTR chain 2: VVGGEDAKPGQFPWQVVLNGKVDAFCGGSIVNEKWIVTAAHCVETGVKITVVAGEHNIEETEHTEQKRNVIRIIPHHNYSAAINKYNHDIALLELDEPLVLNSYVTPICIADKEYTNIFLKFGSGYVSGWGRVFHKGRSALVLQYLRVPLVDRATCLESTKFRIYNNMFCAGFHEGGRDSCQGDSGGPHVTEVEGTSFLTGIISWGEECAMKGKYGIYTKVSEYVNWIKEKTKLT	203
FIXa-K247N/N249S/R318Y/R403E/E410N (protein) chain 1: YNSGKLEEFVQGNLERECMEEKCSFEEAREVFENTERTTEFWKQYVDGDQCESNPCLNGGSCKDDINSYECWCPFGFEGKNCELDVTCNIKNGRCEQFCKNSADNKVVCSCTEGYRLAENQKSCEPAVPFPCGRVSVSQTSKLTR chain 2: VVGGEDAKPGQFPWQVVLNGKVDAFCGGSIVNEKWIVTAAHCVETGVKITVVAGEHNIEETEHTEQNRSVIRIIPHHNYNAAINKYNHDIALLELDEPLVLNSYVTPICIADKEYTNIFLKFGSGYVSGWGRVFHKGYSALVLQYLRVPLVDRATCLRSTKFTIYNNMFCAGFHEGGRDSCQGDSGGPHVTEVEGTSFLTGIISWGEECAMKGKYGIYTKVSEYVNWIKNKTKLT	58
